// reported pIC50 for each item listed
Target: Pro-cathepsin H (Homo sapiens)
Sequence (P09668 whole entry): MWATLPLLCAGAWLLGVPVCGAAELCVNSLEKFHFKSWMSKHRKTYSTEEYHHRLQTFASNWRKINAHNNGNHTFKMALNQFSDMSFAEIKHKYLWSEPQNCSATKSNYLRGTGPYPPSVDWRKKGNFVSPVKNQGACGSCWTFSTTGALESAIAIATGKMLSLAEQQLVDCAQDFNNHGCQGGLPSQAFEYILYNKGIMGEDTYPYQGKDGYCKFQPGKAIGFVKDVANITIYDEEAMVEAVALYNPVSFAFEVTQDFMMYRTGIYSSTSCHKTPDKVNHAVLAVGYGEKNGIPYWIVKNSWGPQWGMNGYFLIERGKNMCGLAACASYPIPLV
Test: Inhibition of human recombinant cathepsin H after 10 mins
pIC50: −log10 of the molar value.

Solved entries (count: 3):
* N#C[C@@]1(NC(=O)[C@@H](N)Cc2cccs2)C[C@@H]1c1ccccc1.O=C(O)C(F)(F)F | < 4.30
* N#C[C@@]1(NC(=O)C(N)Cc2sccc2F)C[C@@H]1c1ccccc1 (some centres undefined) | < 4.30
* N#C[C@]1(NC(=O)C(N)Cc2cccs2)C[C@H]1c1ccccc1.O=C(O)C(F)(F)F (single isomer, unassigned) | < 4.30

Consider now this further compound.
Request - read-out pIC50 | tested on Pro-cathepsin H (Homo sapiens) | compound CS(=O)(=O)C[C@H](N[C@@H](c1ccc(Br)cc1)C(F)(F)F)C(=O)NC1(C#N)CC1
< 4.30

Data credit: ChEMBL document CHEMBL1156470
